test: Potency index, ratio of IC50 for dark toxicity in human HeLa cells to IC50 for phototoxicity in human HeLa cells in presence of irradiation with LED light at 12 J/cm2; type: cell-based; details: read-out: Ratio IC50
MEASURED_QUANTITY: selectivity ratio

COMPOUND	OBSERVED_RESULT
C=Cc1c(C)c2cc3nc(c(CC(=O)OC)c4[nH]c(cc5nc(cc1[nH]2)C(C)=C5CC)c(C)c4C(=O)NCCN(C[C@H]1OC(O)[C@H](O)[C@@H](O)[C@H]1O)C[C@H]1OC(O)[C@H](O)[C@@H](O)[C@H]1O)[C@@H](CCC(=O)NCCN(C[C@H]1OC(O)[C@H](O)[C@@H](O)[C@H]1O)C[C@H]1OC(O)[C@H](O)[C@@H](O)[C@H]1O)[C@@H]3C (some centres not stated)	38
C=Cc1c(C)c2cc3nc(c(CC(=O)OC)c4[nH]c(cc5nc(cc1[nH]2)C(C)=C5CC)c(C)c4C(=O)NCCN(C[C@H]1OC(O)[C@H](O)[C@@H](O)[C@H]1O)C[C@H]1OC(O)[C@H](O)[C@@H](O)[C@H]1O)[C@@H](CCC(=O)O)[C@@H]3C (some centres not stated)	31

====

assay: Dark toxicity in human HeLa cells assessed as reduction in cell viability; assay type: cell-based
pIC50: −log10 of the molar value.
MEASURED_QUANTITY: pIC50

COMPOUND	OBSERVED_RESULT
C=Cc1c(C)c2cc3nc(c(CC(=O)OC)c4[nH]c(cc5nc(cc1[nH]2)C(C)=C5CC)c(C)c4C(=O)NCCN(C[C@H]1OC(O)[C@H](O)[C@@H](O)[C@H]1O)C[C@H]1OC(O)[C@H](O)[C@@H](O)[C@H]1O)[C@@H](CCC(=O)O)[C@@H]3C (stereo partly drawn)	4.41
C=Cc1c(C)c2cc3nc(c(CC(=O)OC)c4[nH]c(cc5nc(cc1[nH]2)C(C)=C5CC)c(C)c4C(=O)NCCN(C[C@H]1OC(O)[C@H](O)[C@@H](O)[C@H]1O)C[C@H]1OC(O)[C@H](O)[C@@H](O)[C@H]1O)[C@@H](CCC(=O)OC)[C@@H]3C (stereo partly drawn)	5.21
C=Cc1c(C)c2cc3nc(c(CC(=O)OC)c4[nH]c(cc5nc(cc1[nH]2)C(C)=C5CC)c(C)c4C(=O)NCCN(C[C@H]1OC(O)[C@H](O)[C@@H](O)[C@H]1O)C[C@H]1OC(O)[C@H](O)[C@@H](O)[C@H]1O)[C@@H](CCC(=O)NCCN(C[C@H]1OC(O)[C@H](O)[C@@H](O)[C@H]1O)C[C@H]1OC(O)[C@H](O)[C@@H](O)[C@H]1O)[C@@H]3C (stereo partly drawn)	4.22

Reference for the values: ChEMBL document CHEMBL4433264
